Values were extracted from ChEMBL document CHEMBL1157348.

Target: UniProt P18825
Sequence (P18825 whole entry): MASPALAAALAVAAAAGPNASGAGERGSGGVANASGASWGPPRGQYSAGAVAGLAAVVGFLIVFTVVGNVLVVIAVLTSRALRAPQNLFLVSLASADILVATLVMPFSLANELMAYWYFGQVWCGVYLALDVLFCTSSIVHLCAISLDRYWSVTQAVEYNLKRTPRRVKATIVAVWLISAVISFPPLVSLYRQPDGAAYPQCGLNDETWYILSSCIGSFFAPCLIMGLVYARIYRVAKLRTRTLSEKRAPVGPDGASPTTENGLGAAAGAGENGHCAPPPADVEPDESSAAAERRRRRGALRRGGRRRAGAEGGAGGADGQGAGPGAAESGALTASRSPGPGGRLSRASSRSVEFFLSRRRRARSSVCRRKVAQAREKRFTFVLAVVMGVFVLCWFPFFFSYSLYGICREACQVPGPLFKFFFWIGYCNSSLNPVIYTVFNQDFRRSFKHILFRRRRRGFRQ
assay readout: Ki

>  <molecule smiles>
CN[C@@H](C(=O)N(C)[C@H]1CC[C@@]2(C)C(=CC[C@H]3[C@@H]4CC[C@@H]5[C@H](C)N(C)C[C@@]54CC[C@@H]32)C1)C(C)C

>  <target or system>
UniProt P18825

>  <Ki>
77.6 nM

$$$$

We now examine a further compound.
Problem: Tell us which Ki value is on record for C[C@H]1[C@H]2CC[C@H]3[C@@H]4CC=C5C[C@@H](N(C)C)CC[C@]5(C)[C@H]4CC[C@]23CN1C
Solution: 10.6 nM
